# TESTED_ON: HSD17B13 enzyme (Homo sapiens)
# Construct: His; made in house; host or cells: E. coli
# PROTOCOL: NADH detection assay (fluorescence based Leukotriene B3 (LTB3) assay) for HSD17B13 activity
# Assay type: biochemical
# REPORTED_CONDITIONS: substrate 25 μM LTB3, 3 mM NAD+, 125 nM HSD17B13 enzyme, 1 hour at 26.5° C
pIC50: −log10 of the molar value.
Exercise: state measured pIC50 for each of the compounds provided.

Prompt line: pIC50 lookup needed for COc1ccccc1CCNC(=O)c1sccc1NC(=O)c1ccc(N2CCC(C(=O)O)C2)c(Cl)c1 (centres unmarked) , thanks.
Response line: < 5.00

Prompt line: pIC50 lookup needed for `COc1ccccc1CCNC(=O)c1sccc1NC(=O)c1ccc(S(N)(=O)=O)c(Cl)c1` , thanks.
Response line: < 5.00

Prompt line: pIC50 lookup needed for `COc1ccccc1CCNC(=O)c1sccc1NC(=O)c1ccc(OCC(=O)O)c(Cl)c1` , thanks.
Response line: < 5.00

Prompt line: pIC50 lookup needed for `COc1ccccc1CCNC(=O)c1sccc1NC(=O)c1ccc(CCC(=O)O)c(F)c1` , thanks.
Response line: < 5.00

Prompt line: pIC50 lookup needed for `COc1ccccc1CCNC(=O)c1sccc1NC(=O)c1ccc(O)c(Cl)c1` , thanks.
Response line: ≥ 6.00

Prompt line: pIC50 lookup needed for `COc1ccccc1CCNC(=O)c1sccc1NC(=O)c1ccc(O)c(F)c1` , thanks.
Response line: ≥ 6.00

Prompt line: pIC50 lookup needed for `COc1ccccc1CCNC(=O)c1sccc1NC(=O)Cc1ccc(O)c(Cl)c1` , thanks.
Response line: < 5.00

Prompt line: pIC50 lookup needed for `COc1ccccc1CCNC(=O)c1sc(Cl)cc1NC(=O)c1ccc(O)c(Cl)c1` , thanks.
Response line: ≥ 6.00

* * *

# TESTED_ON: HSD17B13 enzyme (Homo sapiens, UniProt Q7Z5P4)
# Construct: His; made in house; host or cells: E. coli
# Sequence (Q7Z5P4 20-300): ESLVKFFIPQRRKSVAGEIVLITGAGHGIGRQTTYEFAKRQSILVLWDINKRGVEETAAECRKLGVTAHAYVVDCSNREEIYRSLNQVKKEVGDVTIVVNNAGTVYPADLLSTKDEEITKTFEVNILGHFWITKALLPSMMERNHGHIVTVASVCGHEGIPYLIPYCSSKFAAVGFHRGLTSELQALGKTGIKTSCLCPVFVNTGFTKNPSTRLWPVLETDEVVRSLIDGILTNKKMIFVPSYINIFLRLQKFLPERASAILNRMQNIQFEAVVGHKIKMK
# PROTOCOL: NADH detection assay (fluorescence based Leukotriene B3 (LTB3) assay) for HSD17B13 activity
# Format: biochemical
# REPORTED_CONDITIONS: substrate 25 μM LTB3, 3 mM NAD+, 125 nM HSD17B13 enzyme, 1 hour at 26.5° C
pIC50: −log10 of the molar value.
Exercise: state measured pIC50 for each of the molecules provided.

Prompt line: pIC50 lookup needed for `COc1ccccc1CCNC(=O)c1c(NC(=O)c2ccc(O)c(F)c2)sc(C)c1C` , thanks.
Response line: ≥ 6.00

Prompt line: pIC50 lookup needed for `COc1ccccc1CCNC(=O)c1sccc1NC(=O)c1ccncc1` , thanks.
Response line: < 5.00

Prompt line: pIC50 lookup needed for `O=C(Nc1ccsc1C(=O)NCCc1ccccc1F)c1ccc(O)c(Cl)c1` , thanks.
Response line: ≥ 6.00

Prompt line: pIC50 lookup needed for `COc1ccccc1CCNC(=O)c1sccc1NC(=O)c1cc(Cl)c(O)c(Cl)c1` , thanks.
Response line: ≥ 6.00

Prompt line: pIC50 lookup needed for `COc1ccccc1CCNC(=O)c1sccc1NC(=O)c1cnc(O)c(Cl)c1` , thanks.
Response line: < 5.00

Prompt line: pIC50 lookup needed for `CC(C)(C)CCNC(=O)c1sc2cnccc2c1NC(=O)c1ccc(O)c(F)c1` , thanks.
Response line: < 5.00

FYI, the data here is from patent US12673930B2.
